// IC50 lookup, one value per entry
# SYSTEM_NAME: Plasma Kallikrein (Homo sapiens (Human))
# Sequence (P03952 391-638): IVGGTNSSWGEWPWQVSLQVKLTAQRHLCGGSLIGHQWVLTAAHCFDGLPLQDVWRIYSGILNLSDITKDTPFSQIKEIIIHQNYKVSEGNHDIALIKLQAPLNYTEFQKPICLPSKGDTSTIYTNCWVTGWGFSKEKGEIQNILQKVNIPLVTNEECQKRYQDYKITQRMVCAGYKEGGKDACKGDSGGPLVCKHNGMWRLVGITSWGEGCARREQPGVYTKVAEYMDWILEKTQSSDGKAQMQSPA
# Sequence (P03952 20-390 partner): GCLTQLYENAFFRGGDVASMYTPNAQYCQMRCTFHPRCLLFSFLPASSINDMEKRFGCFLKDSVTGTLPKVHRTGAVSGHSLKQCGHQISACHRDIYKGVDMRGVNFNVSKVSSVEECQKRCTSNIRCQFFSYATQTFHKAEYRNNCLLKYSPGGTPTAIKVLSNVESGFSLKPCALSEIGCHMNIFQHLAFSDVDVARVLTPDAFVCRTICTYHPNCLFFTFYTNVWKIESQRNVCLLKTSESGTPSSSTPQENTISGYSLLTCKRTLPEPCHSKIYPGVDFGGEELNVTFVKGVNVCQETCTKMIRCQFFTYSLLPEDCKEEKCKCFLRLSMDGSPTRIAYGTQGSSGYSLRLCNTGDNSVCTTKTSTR
# ASSAY: Determination of related protease inhibition: Plasma Kallikrein (fluorogenic substrate at Km)
# CONDITION: 25° C., read-out: IC50 (human PKal)

[[record]]
compound = "Cc1cc(NCc2ccc(NCC3CCN(C)CC3)nc2)c2cc[nH]c2n1"
readout = "IC50"
observed_measurement = "> 40 µM"

[[record]]
compound = "CNc1cc(NCc2ccc(N3CCn4c(nnc4C(F)F)C3)nc2)ccn1"
readout = "IC50"
observed_measurement = "> 40 µM"

[[record]]
compound = "Nc1nccc2c(NCc3ccc(N4Cc5nccn5C(CO)C4)nc3)cccc12 (centres unmarked)"
readout = "IC50"
observed_measurement = "> 40 µM"

[[record]]
compound = "CN1CCC(CNc2ccc(CNc3ccc4cncc(N5CCC(F)(F)C5)c4c3)cn2)CC1"
readout = "IC50"
observed_measurement = "> 40 µM"


Note to self: IC50 recorded for Nc1nccc2c(NCc3ccnc(OC4CCn5ccnc5C4)c3)cccc12 (centres unmarked) was 10 to 40 µM
